Target protein (sequence): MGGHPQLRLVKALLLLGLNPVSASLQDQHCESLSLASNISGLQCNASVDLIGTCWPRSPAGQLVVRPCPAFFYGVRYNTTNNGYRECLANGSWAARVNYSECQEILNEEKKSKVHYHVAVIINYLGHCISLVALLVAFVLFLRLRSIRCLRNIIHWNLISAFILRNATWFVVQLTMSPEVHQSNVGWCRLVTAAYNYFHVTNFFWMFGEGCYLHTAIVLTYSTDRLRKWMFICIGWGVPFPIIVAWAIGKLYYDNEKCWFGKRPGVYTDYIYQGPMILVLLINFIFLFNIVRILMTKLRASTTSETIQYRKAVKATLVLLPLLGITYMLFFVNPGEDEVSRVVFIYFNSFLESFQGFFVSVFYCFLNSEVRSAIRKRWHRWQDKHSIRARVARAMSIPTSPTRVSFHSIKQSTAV
Reported Ki values follow for various molecules

Known Ki results, listed for orientation:
CCCN(CC1CC1)c1nc(C)nc2c1n(C)c(=O)n2-c1c(C)cc(C)cc1C    6.1 nM
CCCN(CCC)c1nc(C)nc2c1n(C)c(=O)n2-c1c(C)cc(C)nc1C    259 nM
COCCN(CCOC)c1nc(C)nc2c1n(C)c(=O)n2-c1c(C)cc(C)cc1C    698 nM
CCCCN(CC)c1nc(C)nc2c1n(CC1CC1)c(=O)n2-c1ccc(C(C)C)cc1Br    117 nM

Turning now to a further record.
Tell me its Ki given COCCN(CC1CC1)c1nc(C)nc2c1n(C)c(=O)n2-c1ccc(C(C)C)cc1Br as the entry. 12.2 nM

====

- target-entity: Corticotropin-releasing factor receptor 1 (Homo sapiens)
- Sequence (P34998 whole entry): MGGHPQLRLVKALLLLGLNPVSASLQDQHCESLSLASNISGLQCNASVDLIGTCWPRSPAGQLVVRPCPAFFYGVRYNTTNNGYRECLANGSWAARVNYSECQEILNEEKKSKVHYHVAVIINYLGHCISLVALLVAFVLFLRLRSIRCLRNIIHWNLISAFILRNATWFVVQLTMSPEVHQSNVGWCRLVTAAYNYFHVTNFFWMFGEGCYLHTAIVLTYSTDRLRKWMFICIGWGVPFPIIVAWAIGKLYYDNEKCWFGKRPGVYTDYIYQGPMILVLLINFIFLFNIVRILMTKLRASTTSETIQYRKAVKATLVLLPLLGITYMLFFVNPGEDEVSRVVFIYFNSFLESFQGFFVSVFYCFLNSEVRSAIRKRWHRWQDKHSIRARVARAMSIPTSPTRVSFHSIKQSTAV
Label yes (1) when Ki < 100 nM; otherwise no (0).

Here are 6 molecules together with their reported answers.
CCCCC(CC)Nc1nc(C)nc2c1n(C)c(=O)n2-c1c(C)cc(C)cc1C (configuration not stated)    yes (1)
CCCN(CC1CC1)c1nc(C)nc2c1n(C)c(=O)n2-c1c(C)cc(C)nc1C    no (0)
CCCCN(CC)c1nc(C)nc2c1nc(N1CCOCC1)n2-c1ccc(C(C)C)cc1Br    no (0)
CCCCN(CC)c1cc(C)nc2c1n(C)c(=O)n2-c1ccc(C(C)C)cc1Br    yes (1)
CCCCN(CC)c1nc(C)nc2c1nc(OCC1CC1)n2-c1ccc(C(C)C)cc1Br    yes (1)
CCCCN(CC)c1nc(C)nc2c1n(C)c(=O)n2-c1c(C)cc(C)nc1C    no (0)

Next:
Is Ki of CCCCN(CC)c1nc(C)cc2c1n(C)c(=O)n2-c1ccc(C(C)C)cc1Br strictly below 100 nM? no (0)

Values compiled from ChEMBL document CHEMBL1131668.
